experiment.notes: ATG_Ets_CIS: Attagene CIS-FACTORIAL HepG2 Assay for human Erythroblast Transformation Specific (ETS) (AID 2282941)
condition.info: HepG2 ETS cis-reporter transcription, actives raise or lower the signal
Active and inactive are the calls of the source. The calls were made as follows: active = hit-call score of the fitted dose curve at least 0.9, where 1 is the maximum; inactive = score below 0.9.
Your reply should match one of these outcome classes. TRUE for active, FALSE for inactive

Answered cases to consult:
[
  {
    "compound": "O=NN1CCCCCC1",
    "category": "FALSE"
  },
  {
    "compound": "COc1ccccc1N",
    "category": "FALSE"
  },
  {
    "compound": "CCOC(=O)c1ccccc1S(=O)(=O)NC(=O)Nc1nc(Cl)cc(OC)n1",
    "category": "FALSE"
  },
  {
    "compound": "C[C@@H]1O[C@@H](O[C@H]2C[C@@H](O)[C@]3(CO)[C@H]4[C@H](O)C[C@]5(C)[C@@H](C6=CC(=O)OC6)CC[C@]5(O)[C@@H]4CC[C@]3(O)C2)[C@H](O)[C@H](O)[C@H]1O",
    "category": "TRUE"
  }
]

Record request — test call for `CCOP(=S)(OCC)OP(=S)(OCC)OCC` FALSE

Record request — test call for `C1CN2CCN1CC2` FALSE

Record request — test call for `O=C(Cc1ccccc1)OCCc1ccccc1` FALSE

###

tested.system: human Vitamin D Receptor (VDR), VDR (gene 7421)
experiment.notes: ATG_VDR_TRANS: Attagene TRANS-FACTORIAL HepG2 Assay for human Vitamin D Receptor (VDR) (AID 2283022)
Inconclusive results are not listed. Activity calls are given as the source filed them. Rule for the calls: active = hit-call score of the fitted dose curve at least 0.9, where 1 is the maximum; inconclusive = response in the unintended direction; inactive = score below 0.9.
measurement.name: outcome

# count of solved cases: 6
[
  {
    "compound": "CCCCCCCCBr",
    "result": "inactive"
  },
  {
    "compound": "CCCSP(=S)(OCC)Oc1ccc(SC)cc1 (configuration not stated)",
    "result": "inactive"
  },
  {
    "compound": "Nc1c(Oc2ccccc2)cc(O)c2c1C(=O)c1ccccc1C2=O",
    "result": "inactive"
  },
  {
    "compound": "O=[N+]([O-])c1c2ccccc2cc2ccccc12",
    "result": "inactive"
  },
  {
    "compound": "ClCc1ccccc1CCl",
    "result": "inactive"
  },
  {
    "compound": "O=C(O)C1(c2ccc3c(c2)OC[C@H](Cc2ccc(-c4ccccc4)cc2)[C@H]3O)CCCC1",
    "result": "inactive"
  }
]

Moving on to the next compound.
Request the reported outcome associated with `CC(C)(C)c1ccc(CCOc2ncnc3ccccc23)cc1` inactive

###

experiment.notes: ATG_SREBP_CIS: Attagene CIS-FACTORIAL HepG2 Assay for human Sterol Regulatory Element Binding (SREBP) (AID 2282962)
condition.info: HepG2 Attagene cis-factorial SREBP reporter, mRNA; actives raise or lower the signal
Calls of active or inactive are those of the source. How the source made its calls: active means hit-call score of the fitted dose curve at least 0.9, where 1 is the maximum; inactive means score below 0.9.
Your reply should match one of these outcome classes. 1 (yes) for active, 0 (no) for inactive

Answered cases to consult:
[
  {
    "cpd.smiles": "CC(C)(C)c1ccc(CCOc2ncnc3ccccc23)cc1",
    "category": "0 (no)"
  },
  {
    "cpd.smiles": "c1ccc2sc(SNC3CCCCC3)nc2c1",
    "category": "1 (yes)"
  },
  {
    "cpd.smiles": "CNC(=O)O/N=C/C(C)(C)S(C)(=O)=O",
    "category": "0 (no)"
  },
  {
    "cpd.smiles": "NC(=O)CCl",
    "category": "0 (no)"
  }
]

Okay, now this compound:
Record request — test call for `Cc1ccc(OP(=O)(Oc2ccc(C)cc2C)Oc2ccc(C)cc2C)c(C)c1` 0 (no)

###

experiment.notes: CCTE_Padilla_ZF_Score.General: CCTE's 144 Hour Post-fertilization zebrafish Assay Score for General Malformation, Padilla Lab (AID 2284411)
The source made the active and inactive calls. Rule for the calls: active = hit-call score of the fitted dose curve at least 0.9, where 1 is the maximum; inactive = score below 0.9.
Your reply should match one of these outcome classes. 1.0 for active, 0.0 for inactive

Answered cases to consult:
[
  {
    "molecule": "Nc1c(Oc2ccccc2)cc(O)c2c1C(=O)c1ccccc1C2=O",
    "category": 1.0
  },
  {
    "molecule": "OC(Cc1ccccc1Cl)(Cn1cncn1)C1(Cl)CC1 (stereo not drawn)",
    "category": 0.0
  },
  {
    "molecule": "CC(C=O)Cc1ccc2c(c1)OCO2 (stereo not drawn)",
    "category": 0.0
  },
  {
    "molecule": "Cc1ccc2nc3sc(=O)sc3nc2c1",
    "category": 1.0
  }
]

Record request — test call for `C=CCOC(F)(C(F)(F)F)C(F)(F)F` 0.0

Record request — test call for CCOC(=O)C(SP(=S)(OC)OC)c1ccccc1 (stereo not drawn) 1.0

Record request — test call for `CCN(CC)C(=O)C(Cl)=C(C)OP(=O)(OC)OC` 0.0

Record request — test call for `Oc1c(Br)cc(Br)cc1Br` 1.0

Record request — test call for `Cc1ccccc1OP(=O)(Oc1ccccc1)Oc1ccccc1` 1.0

###

experiment.notes: CCTE_Shafer_MEA_acute_cross_correlation_HWHM: CCTE's Neural Acute Assay for Cross Correlation at Half Width at Half Maximum, Shafer Lab (AID 2284026);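 also: percent change per well from pre-dose baseline in spike cross-correlogram half width; hits are a decrease in cross-correlogram half width relative to DMSO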;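 as to outcome: spontaneous network firing of rat primary cortical neurons on multiwell microelectrode arrays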
Experimental: CCTE_Shafer_MEA_acute assay is conducted using Axion Biosystems 48 well microelectrode array (MEA) plates and Maestro recording system. Each well of the MEA plate contains a grid of 16 microelectrodes embedded in the culture surface. Electrically active cells, such as neurons, can be cultured over the electrodes, and electrical activity in these cells can be recorded extracellularly. […]
The source made the active and inactive calls. Rule for the calls: active = hit-call score of the fitted dose curve at least 0.9, where 1 is the maximum; inactive = score below 0.9.
Your reply should match one of these outcome classes. active, inactive

Answered cases to consult:
[
  {
    "cpd.smiles": "Oc1cc(Cl)c(Cl)cc1Cl",
    "category": "active"
  },
  {
    "cpd.smiles": "CCCCOC(=O)COC(=O)c1ccccc1C(=O)OCCCC",
    "category": "inactive"
  }
]

Okay, now this compound:
Record request — test call for `Cc1cc(C(F)(C(F)(F)F)C(F)(F)F)ccc1NC(=O)c1cccc(I)c1C(=O)NC(C)(C)CS(C)(=O)=O` active

###

experiment.notes: CCTE_Shafer_MEA_acute_burst_duration_mean: CCTE's Neural Acute Assay for Mean Burst Duration, Shafer Lab (AID 2284014);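 also: hits are decreases in mean burst duration relative to DMSO controls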
Activity calls are given as the source filed them. Rule for the calls: active = hit-call score of the fitted dose curve at least 0.9, where 1 is the maximum; inactive = score below 0.9.
Your reply should match one of these outcome classes. 1.0 (active), 0.0 (inactive)

[
  {
    "compound": "CC(C)[C@@H](Nc1ccc(C(F)(F)F)cc1Cl)C(=O)OC(C#N)c1cccc(Oc2ccccc2)c1 (stereo partly specified)",
    "category": 1.0
  },
  {
    "compound": "Cc1cc(C(F)(C(F)(F)F)C(F)(F)F)ccc1NC(=O)c1cccc(I)c1C(=O)NC(C)(C)CS(C)(=O)=O",
    "category": 0.0
  },
  {
    "compound": "CN(C)C(=S)S",
    "category": 0.0
  },
  {
    "compound": "CCCCCCCCCCCCc1cccc(S(=O)(=O)O)c1",
    "category": 0.0
  },
  {
    "compound": "Oc1ccc(Cc2ccc(O)cc2)cc1",
    "category": 0.0
  }
]

Record request — test call for `Oc1cc(Cl)c(Cl)cc1Cl` 0.0

###

experiment.notes: IUF_NPC1b_proliferation_BrdU_72hr: Leibniz Research Institute for Environmental Medicine (IUF) 72-hour Neural Progenitor Cell Bromodeoxyuridine (BrdU) Proliferation Assay (NPC1b) (AID 2284207)
Active and inactive are the calls of the source. Rule for the calls: active = hit-call score of the fitted dose curve at least 0.9, where 1 is the maximum; inactive = score below 0.9.
Your reply should match one of these outcome classes. 1 (active), -1 (inactive)

Answered cases to consult:
[
  {
    "compound": "Cc1ccccc1OP(=O)(Oc1ccccc1C)Oc1ccccc1C",
    "category": -1
  },
  {
    "compound": "Cc1cc(C(F)(C(F)(F)F)C(F)(F)F)ccc1NC(=O)c1cccc(I)c1C(=O)NC(C)(C)CS(C)(=O)=O",
    "category": -1
  },
  {
    "compound": "O=S1OC[C@@H]2[C@H](CO1)[C@]1(Cl)C(Cl)=C(Cl)[C@@]2(Cl)C1(Cl)Cl (stereo partly specified)",
    "category": -1
  },
  {
    "compound": "CCOCn1c(-c2ccc(Cl)cc2)c(C#N)c(Br)c1C(F)(F)F",
    "category": -1
  },
  {
    "compound": "OC(Cc1ccccc1Cl)(Cn1[nH]cnc1=S)C1(Cl)CC1 (stereo unspecified)",
    "category": 1
  }
]

Record request — test call for `CC1(C)[C@H](C(=O)O[C@H](C#N)c2cccc(Oc3ccccc3)c2)[C@@H]1/C=C(\Cl)C(F)(F)F` 1

###

experiment.notes: ATG_CRE_CIS: Attagene CIS-FACTORIAL HepG2 Assay for human cAMP Responsive Element (CRE) binding protein 3 (AID 2282926)
condition.info: HepG2 CRE cis-reporter, Attagene multiplexed mRNA; actives raise or lower the signal
Activity calls are given as the source filed them. Rule for the calls: active = hit-call score of the fitted dose curve at least 0.9, where 1 is the maximum; inactive = score below 0.9.
measurement.name: AC50

# count of solved cases: 8
[
  {
    "cpd.smiles": "Cc1ccc(CCl)cc1",
    "AC50": "inactive"
  },
  {
    "cpd.smiles": "Brc1ccc(Br)cc1",
    "AC50": "inactive"
  },
  {
    "cpd.smiles": "CN(C)C(=S)S",
    "AC50": "inactive"
  },
  {
    "cpd.smiles": "COc1ccccc1N",
    "AC50": "inactive"
  },
  {
    "cpd.smiles": "COCC(=O)N(c1c(C)cccc1C)[C@H](C)C(=O)OC",
    "AC50": "inactive"
  },
  {
    "cpd.smiles": "COP(=S)(OC)Oc1cc(Cl)c(I)cc1Cl",
    "AC50": "29.6 µM (active)"
  },
  {
    "cpd.smiles": "CC(C)CP(=S)(S)CC(C)C",
    "AC50": "inactive"
  },
  {
    "cpd.smiles": "[F][Sn]([c]1ccccc1)([c]1ccccc1)[c]1ccccc1",
    "AC50": "0.321 µM (active)"
  }
]

Request the reported AC50 associated with `ClCc1ccccc1Cl` 83.5 µM (active)

Request the reported AC50 associated with `CCCCN(CCCC)C(=S)[S-].CCCCN(CCCC)C(=S)[S-].[Ni+2]` inactive

Request the reported AC50 associated with `CCN(N=O)C(N)=O` inactive

Request the reported AC50 associated with `N#CCC#N` inactive

Request the reported AC50 associated with `CCCCCCCCCCCCOS(=O)(=O)O` inactive

Request the reported AC50 associated with `c1ccc(-c2cccc(-c3ccccc3)c2)cc1` inactive

Request the reported AC50 associated with `Cc1cc(-c2cc(C)c(N)c(C)c2)cc(C)c1N` inactive
